Give measured EC50 (read off the curve) for each item. Keep answers brief.
Target: T1, human ROR1 on cells (HEK293T-hROR1, PANC-1, A549) (human, UniProt Q01973 30-937)
T1 construct: whole, on cells; one molecule for the three cell lines; also called huROR1; cell surface ROR1
T1 sequence (Q01973 30-937): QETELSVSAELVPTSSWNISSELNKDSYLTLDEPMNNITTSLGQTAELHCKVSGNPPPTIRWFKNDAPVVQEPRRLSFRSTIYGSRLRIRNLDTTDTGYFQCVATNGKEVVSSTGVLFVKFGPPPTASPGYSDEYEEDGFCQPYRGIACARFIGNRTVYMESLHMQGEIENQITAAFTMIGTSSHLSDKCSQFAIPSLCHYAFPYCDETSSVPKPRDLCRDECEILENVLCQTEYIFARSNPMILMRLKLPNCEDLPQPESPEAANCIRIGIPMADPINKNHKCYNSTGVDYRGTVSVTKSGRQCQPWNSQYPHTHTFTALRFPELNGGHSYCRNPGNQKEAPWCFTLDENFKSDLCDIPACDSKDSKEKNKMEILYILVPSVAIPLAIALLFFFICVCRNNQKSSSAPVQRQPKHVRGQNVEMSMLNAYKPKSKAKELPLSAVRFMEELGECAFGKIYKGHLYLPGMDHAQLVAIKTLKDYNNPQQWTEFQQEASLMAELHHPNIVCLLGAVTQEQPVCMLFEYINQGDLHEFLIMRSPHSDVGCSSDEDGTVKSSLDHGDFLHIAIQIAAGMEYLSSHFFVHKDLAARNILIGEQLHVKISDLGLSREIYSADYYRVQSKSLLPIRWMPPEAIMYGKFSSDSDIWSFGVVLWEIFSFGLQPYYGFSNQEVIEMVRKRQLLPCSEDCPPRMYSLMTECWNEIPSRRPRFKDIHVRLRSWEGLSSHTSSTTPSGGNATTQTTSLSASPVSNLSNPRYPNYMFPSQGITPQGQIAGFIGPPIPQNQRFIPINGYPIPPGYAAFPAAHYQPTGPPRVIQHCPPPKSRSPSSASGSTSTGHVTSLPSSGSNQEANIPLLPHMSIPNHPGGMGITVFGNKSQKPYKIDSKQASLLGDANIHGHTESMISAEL
Assay: flow cytometry on PANC-1 cells, MFI (Median-APC) [top panel]

Below are worked cases with known answers.
• PR005340 (antibody, human IgG1, V domains shown, HCAb (heavy chain-only, human IgG1 Fc), no light chain) VH: EVQLVESGGGLVKPGGSLRLSCAASGFTFSDYYMSWIRQAPGKGLEWISYISSSGSTIHYADSVKGRFTISRDNAKNSLYLQMNSLRAEDTAIYYCARDIPSSSSDWVSLQFDYWGQGTLVTVSS = ~3 nM
• PR007412 (antibody, V domains shown, bivalent form (HCAb) variant of PR005340, no light chain) VH: EVQLVESGGGLVKPGGSLRLSCAASGFTFSDFYMSWIRQAPGKGLEWISYISSSGSWIHYADSVKGRFTISRDNAKNSLYLQMNSLRAEDTAIYYCARDMPSSSSDWVSLQFDYWGQGTLVTVSS = ~0.5 nM
• PR007411 (antibody, V domains shown, bivalent form (HCAb) variant of PR005340, no light chain) VH: EVQLVESGGGLVKPGGSLRLSCAASGFTFSDFYMSWIRQAPGKGLEWISYISSSGSTIHYADSVKGRFTISRDNAKNSLYLQMNSLRAEDTAIYYCARDMPSSSSDWVDLQFDYWGQGTLVTVSS = ~0.7 nM

Please report EC50 (read off the curve) for every entry that follows.
1. PR007409 (antibody, V domains shown, bivalent form (HCAb) variant of PR005340, no light chain) VH: EVQLVESGGGLVKPGGSLRLSCAASGFTFSDFYMSWIRQAPGKGLEWISYISSSGSWIHYADSVKGRFTISRDNAKNSLYLQMNSLRAEDTAIYYCARDIPSSSSDWVDLQFDYWGQGTLVTVSS
2. PR007408 (antibody, V domains shown, bivalent form (HCAb) variant of PR005340, no light chain) VH: EVQLVESGGGLVKPGGSLRLSCAASGFTFSDFYMSWIRQAPGKGLEWISYISSSGSYIHYADSVKGRFTISRDNAKNSLYLQMNSLRAEDTAIYYCARDMPSSSSDWVDLQFDYWGQGTLVTVSS
3. PR007410 (antibody, V domains shown, bivalent form (HCAb) variant of PR005340, no light chain) VH: EVQLVESGGGLVKPGGSLRLSCAASGFTFSDFYMSWIRQAPGKGLEWISYISSSGSYIHYADSVKGRFTISRDNAKNSLYLQMNSLRAEDTAIYYCARDIPSSSSDWVDLQFDYWGQGTLVTVSS

~0.8 nM
~0.4 nM
~0.8 nM
